Data provenance is patent US9862686B2.

Recorded pest or weed control at 100 ppm, one value per entry.
# System: Mycosphaerella graminicola; Anamorph: Septoria tritici; Bayer Code SEPTTR
# Procedure Text: Fungicidal activity: leaf blotch of wheat, protectant and curative treatment of inoculated wheat plants
# Type: in vivo
# Condition Details: Zymoseptoria tritici, 72 h; Three-Day Curative (3DC), 100 ppm, wheat plants (variety Yuma), percent control vs untreated inoculated plants; read-out: SEPTTR 100 PPM 3DC (% Disease Control rating)
Measurement Name: pest or weed control at 100 ppm

Compound: Nc1nc(=O)n(S(=O)(=O)Cc2ccccc2)cc1F [Cmpd 12]
Result: 76 to 100%

Compound: Cc1cc(Oc2ncc(C(F)(F)F)cc2Cl)ccc1S(=O)(=O)n1cc(F)c(N)nc1=O [Cmpd 23]
Result: 76 to 100%

Compound: Cc1ccc(C(=O)Nc2nc(=O)n(S(=O)(=O)c3ccc(Cl)cc3)cc2F)cc1 [Cmpd 39]
Result: 76 to 100%

Compound: CN(C)/C=N/c1nc(=O)n(S(=O)(=O)c2c(Cl)cccc2Cl)cc1F [Cmpd 29]
Result: 76 to 100%

Compound: CC(=O)Nc1nc(=O)n(S(=O)(=O)c2ccc(Cl)cc2)cc1F [Cmpd 34]
Result: 76 to 100%

Compound: CCC(=O)Nc1nc(=O)n(S(=O)(=O)c2ccc(Cl)cc2)cc1F [Cmpd 35]
Result: 76 to 100%

Compound: COc1ccc(S(=O)(=O)n2cc(F)c(N)nc2=O)cc1 [Cmpd 26]
Result: 76 to 100%

Compound: CN(C)/C=N/c1nc(=O)n(S(C)(=O)=O)cc1F [Cmpd 3]
Result: 76 to 100%

Compound: Cc1cc(S(=O)(=O)n2cc(F)c(N)nc2=O)ccc1Oc1ncc(C(F)(F)F)cc1Cl [Cmpd 22]
Result: 76 to 100%

Compound: O=C(Nc1nc(=O)n(S(=O)(=O)c2ccc(Cl)cc2)cc1F)c1ccccc1 [Cmpd 37]
Result: 26 to 50%

Compound: Nc1nc(=O)n(S(=O)(=O)c2ccccc2)cc1F [Cmpd 24]
Result: 76 to 100%

Compound: O=c1nc(NC(=S)Nc2ccccc2)c(F)cn1S(=O)(=O)c1cccs1 [Cmpd 46]
Result: 26 to 50%
